Exercise: for every item that follows, state its recorded TGI.
# Test system: M14 melanoma
# protocol text: NCI tumour cell line growth inhibition, 48 h

Given Nc1nc(-c2ccc(Cl)cc2)cc(-c2ccccc2)c1-c1nc2ccccc2o1 , report its TGI on M14 melanoma. 26.2 µM

Give TGI only, for Nc1ncnc2c1ncn2C1OC(COC2C(CO)OC(OC(C(=O)O)C(O)C(OP(=O)(O)O)C(O)C(=O)O)C(O)C2O)C(O)C1O (stereo not drawn) , using M14 melanoma data. > 100 µM

Give TGI for this entry on M14 melanoma: Fc1c(F)c(C(F)(F)F)c(F)c(F)c1N/N=C/c1cn(Cc2ccccc2)c2ccccc12 43 µM

Write down the reported TGI (system: M14 melanoma) of COC(=O)N/N=C(/Cc1occc(=O)c1O)C(=O)Nc1ccc([N+](=O)[O-])cc1[N+](=O)[O-] > 100 µM

Look up and report TGI, with M14 melanoma as system, for COc1ccc(C2S/C(=C\c3ccccc3)C(=O)N2NC(=O)Cc2ccccc2)cc1 (stereo not drawn) > 100 µM

# return TGI for O=C(NNC(=O)c1nsc2ccccc12)c1ccc(Cl)cc1 , test system: M14 melanoma 36.9 µM

Look up and report TGI, with M14 melanoma as system, for O=C1COCCN1C(=O)c1ccccc1Cl > 100 µM

Enter recorded TGI with M14 melanoma for CC(=O)C1=C(O)CCC1=O here. > 100 µM

Look up and report TGI, with M14 melanoma as system, for COc1ccc2nc3ccccc3c(NCc3ccc(C)cc3)c2c1 3.61 µM

Fill in: TGI on M14 melanoma, entry O=Nc1c(NO)ccc2nn(-c3ccccc3)nc12 > 100 µM

Under M14 melanoma, report TGI for Nc1ccc(-c2ccc(-c3nc4cc(Cl)c(Cl)cc4[nH]3)cc2)cc1 > 37.1 µM

Look up M14 melanoma data: TGI of C=C(C)[C@@H]1CC[C@]2(C(N)=O)CC[C@]3(C)[C@H](CC[C@@H]4[C@@]5(C)C/C(=C/c6cccnc6)[C@H](O)C(C)(C)[C@@H]5CC[C@]43C)[C@@H]12 , then report it. > 100 µM

GET TGI | system: M14 melanoma | item: NC(=O)OCc1c(-c2ccccc2)nn(-c2ccccc2)c1COC(N)=O > 100 µM

###

Assign TGI to each entry below.
# Test system: OVCAR-4 ovarian
# protocol text: NCI tumour cell line growth inhibition, 48 h

Give measured TGI for C=CCC1C(=O)Nc2cccc3ncn(c23)C1=O (stereo unspecified) (OVCAR-4 ovarian). > 100 µM

Provide the reported TGI (system: OVCAR-4 ovarian) for Nc1nc(=O)n(CC(O)CO)s1 (stereo unspecified) > 100 µM

# return TGI for Cn1c(=O)c2c(nc3n(C)c(=O)c4ccccc4n23)n(C)c1=O , test system: OVCAR-4 ovarian > 100 µM

// fetch TGI for CC(C)c1ccc2nc3ccc(C(=O)NCCN4CCN(c5ccccc5)CC4)cn3c(=O)c2c1 ; system: OVCAR-4 ovarian > 100 µM

Param request: TGI | system OVCAR-4 ovarian | item COC(=O)/C=C1/OC(c2ccc(C)cc2)=C(Cl)C1=O 27.5 µM

Provide TGI, system OVCAR-4 ovarian, entry O=c1cc(-c2cccc(OCc3ccccc3)c2)[nH]c2cc3c(cc12)OCO3 > 27.8 µM

###

# Tested on: HS 578T breast
# protocol text: NCI tumour cell line growth inhibition, 48 h
recorded endpoint: TGI

Output TGI of CCOC(=O)c1c(CN2CCCC2)n(-c2ccccc2)c2cc(Br)c(OC)cc12 > 100 µM

Could you please provide reported TGI for N#CC(c1ccccc1)N(CCOCCOCCN(C(=O)c1cccc2ccccc12)C(C#N)c1ccccc1)C(=O)c1cccc2ccccc12 (stereo not drawn) ? Thanks! > 100 µM

Recall and state the measured TGI for Cc1ccc(C2=NN(c3ccc(S(N)(=O)=O)cc3)C(c3cn(-c4ccccc4)nc3-c3ccccc3)C2)cc1 (stereo not drawn) . > 100 µM
